B1: PCDHGA10 (parent)
chain: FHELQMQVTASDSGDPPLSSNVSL

- Variants of: B1
- experiment-summary: protein stability index of a GFP-peptide fusion (GPS, HEK-293T) (PSI 1-6); higher = more stable;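 note: lentivirally expressed fusions sorted by FACS into six bins by GFP to DsRed ratio, PSI derived from sequencing read proportions per bin multiplied by bin number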
- test-context: c terminus: a fixed tail appended
Rule: protein stability index of 2 or more gives 1 (yes); anything lower gives 0 (no).

Input: Threshold query (protein stability index >= 2) on FHELQMQVTASDSGDPPLSSNFSL
Output: 0 (no)

Input: Threshold query (protein stability index >= 2) on FHELQMQVTAQDSGDPPLSSNVSL
Output: 1 (yes)

Data provenance is the supplement of paper PMC10567573.
